// data source = patent US7674801B2

For S. aureus (SAU) GyrB ATPase (Staphylococcus aureus), measured pIC50 is reported for the entries below.
The read-out pIC50 is expressed as -log10 of concentration in moles per litre.

{"compound": "CCCCNC(=O)c1nc(-c2ccc(NC(=O)NCC)nc2)sc1C(=O)NOC [Example 36]", "readoutNumber": 7.77}
{"compound": "CCNC(=O)Nc1ccc(-c2cncc(C(=O)O)c2)cn1 [Example 19]", "readoutNumber": 6.07}
{"compound": "CCCCNC(=O)c1nc(-c2ccc(NC(=O)NCC)nc2)sc1C(N)=O [Example 39]", "readoutNumber": 7.85}

Please look at the following compound next.
In: Fill in pIC50 for record CCNC(=O)Nc1ccc(-c2ncc(C(=O)O)s2)cn1 [Example 17]
Out: 6.58

----------
Target: S. aureus (SAU) GyrB ATPase (Staphylococcus aureus, UniProt P0A0K8)
Sequence (P0A0K8 whole entry): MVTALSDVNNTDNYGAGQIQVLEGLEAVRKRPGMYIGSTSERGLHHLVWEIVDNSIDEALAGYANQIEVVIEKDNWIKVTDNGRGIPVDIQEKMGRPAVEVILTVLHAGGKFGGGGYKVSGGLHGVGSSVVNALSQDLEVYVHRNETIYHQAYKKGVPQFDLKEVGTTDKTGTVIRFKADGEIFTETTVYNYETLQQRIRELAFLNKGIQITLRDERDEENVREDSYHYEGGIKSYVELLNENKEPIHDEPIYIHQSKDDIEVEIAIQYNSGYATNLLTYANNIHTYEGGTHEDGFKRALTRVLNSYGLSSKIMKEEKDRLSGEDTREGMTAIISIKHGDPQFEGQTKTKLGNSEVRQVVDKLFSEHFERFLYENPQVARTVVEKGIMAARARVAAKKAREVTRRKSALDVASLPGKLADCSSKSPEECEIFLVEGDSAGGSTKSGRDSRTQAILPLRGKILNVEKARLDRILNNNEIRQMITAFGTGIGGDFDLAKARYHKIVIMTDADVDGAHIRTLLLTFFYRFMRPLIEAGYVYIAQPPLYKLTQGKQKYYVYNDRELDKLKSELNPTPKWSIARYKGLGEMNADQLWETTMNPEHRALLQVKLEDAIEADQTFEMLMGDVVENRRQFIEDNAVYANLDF
Sequence (P0AES4 whole entry, further chain): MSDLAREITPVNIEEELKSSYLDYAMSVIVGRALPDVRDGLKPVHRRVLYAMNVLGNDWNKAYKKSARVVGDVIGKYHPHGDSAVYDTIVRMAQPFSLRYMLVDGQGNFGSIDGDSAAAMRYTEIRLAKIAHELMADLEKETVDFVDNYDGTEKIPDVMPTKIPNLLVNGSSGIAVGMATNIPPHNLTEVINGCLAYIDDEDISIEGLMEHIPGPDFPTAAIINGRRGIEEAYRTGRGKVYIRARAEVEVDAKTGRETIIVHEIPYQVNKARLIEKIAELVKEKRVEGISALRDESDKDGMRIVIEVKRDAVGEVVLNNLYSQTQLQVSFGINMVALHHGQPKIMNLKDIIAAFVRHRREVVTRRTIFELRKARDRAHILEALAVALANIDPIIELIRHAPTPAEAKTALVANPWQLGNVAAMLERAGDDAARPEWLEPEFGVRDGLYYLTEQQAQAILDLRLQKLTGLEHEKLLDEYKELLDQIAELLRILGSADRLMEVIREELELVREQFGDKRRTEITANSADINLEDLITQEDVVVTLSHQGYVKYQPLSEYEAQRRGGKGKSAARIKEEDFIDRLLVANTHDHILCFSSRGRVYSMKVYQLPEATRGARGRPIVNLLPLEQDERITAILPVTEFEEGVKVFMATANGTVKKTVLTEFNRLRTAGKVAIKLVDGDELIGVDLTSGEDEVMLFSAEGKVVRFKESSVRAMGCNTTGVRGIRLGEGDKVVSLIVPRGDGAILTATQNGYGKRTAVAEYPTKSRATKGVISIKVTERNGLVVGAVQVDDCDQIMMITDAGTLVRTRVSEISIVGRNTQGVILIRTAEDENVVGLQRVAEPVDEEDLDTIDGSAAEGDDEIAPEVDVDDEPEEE
Assay: S. aureus GyrB ATPase inhibition, ammonium molybdate/malachite green phosphate detection assay
Type: biochemical
Conditions: read-out: S. aureus (SAU) GyrB ATPase % Inhibition, compound concentration 12.5 μM
Procedure: Compounds were tested for inhibition of GyrB ATPase activity using an ammonium molybdate/malachite green-based phosphate detection assay (Lanzetta, P. A., L. J. Alvarez, P. S. Reinach, and O. A. Candia, 1979, 100: 95-97). […] Compound potency was based on IC50 measurements determined from reactions performed in the presence of 10 different compound concentrations.
This listing pairs molecules with measured inhibition at 12.5 µM.
Could you give me the number in %? Just the number is fine.

Worked cases, inhibition at 12.5 µM given:
{"molecule": "CCNC(=O)Nc1cc(-c2ccc(C(=O)OCC)cc2)ccn1 [Example 138]", "inhibition at 12.5 µM (%)": 94.8}
{"molecule": "CCNC(=O)Nc1ccc(-c2cccc3nc(C(=O)OCC)cn23)cn1 [Example 136]", "inhibition at 12.5 µM (%)": 61}
{"molecule": "CCNC(=O)Nc1ccc(-c2nc(C(=O)O)cs2)cn1 [Example 18]", "inhibition at 12.5 µM (%)": 101}
{"molecule": "CCNC(=O)Nc1ccc(-c2nc(C(=O)N(C)C)c(C(=O)NCC)s2)cn1 [Example 54]", "inhibition at 12.5 µM (%)": 89.8}
{"molecule": "CCNC(=O)Nc1ccc(-c2cccc(CC(=O)O)c2)cn1 [Example 146]", "inhibition at 12.5 µM (%)": 64.3}

In: Identify measured inhibition at 12.5 µM corresponding to CCNC(=O)Nc1cc(-c2nc(CC)cs2)c(-c2cncc(C(=O)NC)c2)cn1 [Example 107]
Out: 84

In: Complete the entry with inhibition at 12.5 µM for CCNC(=O)Nc1cc(-c2nc(C(F)(F)F)cs2)c(-c2cncc(C(=O)NC(C)(C)C)c2)cn1 [Example 123]
Out: 96.2

In: Identify measured inhibition at 12.5 µM corresponding to CCNC(=O)Nc1cc(-c2nc(CC)cs2)c(-c2cncc(C(=O)O)c2)cn1 [Example 99]
Out: 102

In: Look up and state reported inhibition at 12.5 µM for CCNC(=O)Nc1ccc(-c2nc(C(=O)NCC)c(C(=O)N(C)C)s2)cn1 [Example 61]
Out: 92.8

In: State its inhibition at 12.5 µM for this molecule: CCNC(=O)Nc1ccc(-c2ncc(C(N)=O)s2)cn1 [Example 37]
Out: 98.9
